The origin of these recorded values is ChEMBL document CHEMBL3885861.

species on record: Rattus norvegicus; test: Open TG-GATES - Regimen: Single; format: toxicity, organism-based, Sprague-Dawley; set-up: regimen Single, gender Male, age 6 weeks; conditions: in vivo, po, 1000 mg/kg, 24 h, tissue Plasma, route gavage, dose level High
Consider the following compounds and their measured TG readings.

- Compound: "CCOC(=O)CCC(=O)O[C@H]1[C@H](O[C@@H]2[C@@H](C)[C@H](O[C@H]3C[C@@](C)(OC)[C@@H](O)[C@H](C)O3)[C@@H](C)C(=O)O[C@H](CC)[C@@](C)(O)[C@H](O)[C@@H](C)C(=O)[C@H](C)C[C@@]2(C)O)O[C@H](C)C[C@@H]1N(C)C [ERYTHROMYCIN ETHYLSUCCINATE]"
  TG (mg/dL): 53.2
- Compound: "CC(C)OC(=O)C(C)(C)Oc1ccc(C(=O)c2ccc(Cl)cc2)cc1 [FENOFIBRATE]"
  TG (mg/dL): 31.6
- Compound: "COc1ccc2[nH]c([S+]([O-])Cc3ncc(C)c(OC)c3C)nc2c1 (stereo not given)"
  TG (mg/dL): 169.2
- Compound: "COC1=CC(=O)C[C@@H](C)[C@]12Oc1c(Cl)c(OC)cc(OC)c1C2=O"
  TG (mg/dL): 88.4
- Compound: "NC(N)=Nc1nc(CSCCC(N)=NS(N)(=O)=O)cs1"
  TG (mg/dL): 67.4

----------
Consider the following compounds and their measured TP readings.
species on record: Rattus norvegicus; experiment: Open TG-GATES - Regimen: Daily Repeat; format: toxicity, organism-based, Sprague-Dawley; parameters: regimen Daily Repeat, gender Male, age 6 weeks; settings: in vivo, po, 0 mg/kg, […], tissue Plasma, route gavage, dose level Control, time 14 day

- Compound: "CCOc1ccc(NC(=O)CC(C)O)cc1 (stereo not drawn)"
  TP (g/dL): 6.3
- Compound: "COC1=CC(=O)C[C@@H](C)[C@]12Oc1c(Cl)c(OC)cc(OC)c1C2=O"
  TP (g/dL): 5.8
- Compound: "NNC(=O)c1ccncc1"
  TP (g/dL): 5.9
- Compound: "CC1=C(/C=C/C(C)=C/C=C/C(C)=C/CO)C(C)(C)CCC1"
  TP (g/dL): 5.9
- Compound: "CCOC(=O)CCC(=O)O[C@H]1[C@H](O[C@@H]2[C@@H](C)[C@H](O[C@H]3C[C@@](C)(OC)[C@@H](O)[C@H](C)O3)[C@@H](C)C(=O)O[C@H](CC)[C@@](C)(O)[C@H](O)[C@@H](C)C(=O)[C@H](C)C[C@@]2(C)O)O[C@H](C)C[C@@H]1N(C)C [ERYTHROMYCIN ETHYLSUCCINATE]"
  TP (g/dL): 5.7
- Compound: "COc1ccc2[nH]c([S+]([O-])Cc3ncc(C)c(OC)c3C)nc2c1 (stereo not drawn)"
  TP (g/dL): 5.7
- Compound: "CN(C)CCN(Cc1cccs1)c1ccccn1"
  TP (g/dL): 5.5
- Compound: "CN(C)CCCN1c2ccccc2CCc2ccccc21"
  TP (g/dL): 5.9
- Compound: "O=C(CCCN1CCC(O)(c2ccc(Cl)cc2)CC1)c1ccc(F)cc1"
  TP (g/dL): 6.2
- Compound: "CN1C(=O)CN=C(c2ccccc2)c2cc(Cl)ccc21"
  TP (g/dL): 6.4
- Compound: "CCCNC(=O)NS(=O)(=O)c1ccc(Cl)cc1 [CHLORPROPAMIDE]"
  TP (g/dL): 6.1
- Compound: "NC(N)=Nc1nc(CSCCC(N)=NS(N)(=O)=O)cs1"
  TP (g/dL): 5.7
- Compound: "CC(C)OC(=O)C(C)(C)Oc1ccc(C(=O)c2ccc(Cl)cc2)cc1 [FENOFIBRATE]"
  TP (g/dL): 5.9

----------
species on record: Rattus norvegicus; test: Open TG-GATES - Regimen: Single; assay type: toxicity, organism-based, Sprague-Dawley; parameters: regimen Single, gender Male, age 6 weeks; details: in vivo, po, 0 mg/kg, 3 h, tissue Blood, route gavage, dose level Control
Consider the following compounds and their measured MCH readings.
Quantity measured: MCH (pg)

- Compound: "CC1=C(/C=C/C(C)=C/C=C/C(C)=C/CO)C(C)(C)CCC1"
  Quantity measured: "MCH"
  Observed measurement: 21.4
- Compound: "CCOC(=O)CCC(=O)O[C@H]1[C@H](O[C@@H]2[C@@H](C)[C@H](O[C@H]3C[C@@](C)(OC)[C@@H](O)[C@H](C)O3)[C@@H](C)C(=O)O[C@H](CC)[C@@](C)(O)[C@H](O)[C@@H](C)C(=O)[C@H](C)C[C@@]2(C)O)O[C@H](C)C[C@@H]1N(C)C [ERYTHROMYCIN ETHYLSUCCINATE]"
  Quantity measured: "MCH"
  Observed measurement: 20.8
- Compound: "COc1cc2c(c(OC)c1OC)-c1ccc(OC)c(=O)cc1[C@@H](NC(C)=O)CC2"
  Quantity measured: "MCH"
  Observed measurement: 21.6
- Compound: "NC(N)=Nc1nc(CSCCC(N)=NS(N)(=O)=O)cs1"
  Quantity measured: "MCH"
  Observed measurement: 22.3
- Compound: "CN1C(=O)CN=C(c2ccccc2)c2cc(Cl)ccc21"
  Quantity measured: "MCH"
  Observed measurement: 22.3

----------
species on record: Rattus norvegicus; assay: Open TG-GATES - Regimen: Daily Repeat; assay type: toxicity, organism-based, Sprague-Dawley; design: regimen Daily Repeat, gender Male, age 6 weeks; conditions: in vivo, po, 100 mg/kg, […], tissue Plasma, route gavage, dose level Low, time 14 day
Consider the following molecules and their measured Ca readings.

- Molecule: "COc1ccc2[nH]c([S+]([O-])Cc3ncc(C)c(OC)c3C)nc2c1 (stereo not given) [OMEPRAZOLE]"
  Unit of measurement: "mg/dL"
  Ca: 10.3
- Molecule: "COC1=CC(=O)C[C@@H](C)[C@]12Oc1c(Cl)c(OC)cc(OC)c1C2=O [GRISEOFULVIN]"
  Unit of measurement: "mg/dL"
  Ca: 10.6
- Molecule: "CCOC(=O)CCC(=O)O[C@H]1[C@H](O[C@@H]2[C@@H](C)[C@H](O[C@H]3C[C@@](C)(OC)[C@@H](O)[C@H](C)O3)[C@@H](C)C(=O)O[C@H](CC)[C@@](C)(O)[C@H](O)[C@@H](C)C(=O)[C@H](C)C[C@@]2(C)O)O[C@H](C)C[C@@H]1N(C)C [ERYTHROMYCIN ETHYLSUCCINATE]"
  Unit of measurement: "mg/dL"
  Ca: 10.7
- Molecule: "CCOc1ccc(NC(=O)CC(C)O)cc1 (stereo not given) [BUCETIN]"
  Unit of measurement: "mg/dL"
  Ca: 11.1
- Molecule: "NC(N)=Nc1nc(CSCCC(N)=NS(N)(=O)=O)cs1 [FAMOTIDINE]"
  Unit of measurement: "mg/dL"
  Ca: 10.5

----------
species: Rattus norvegicus; experiment: Open TG-GATES - Regimen: Single; format: toxicity, organism-based, Sprague-Dawley; parameters: regimen Single, gender Male, age 6 weeks; conditions: in vivo, po, 1000 mg/kg, 24 h, tissue Blood, route gavage, dose level High
Consider the following compounds and their measured Lym readings.

- Compound: "COC1=CC(=O)C[C@@H](C)[C@]12Oc1c(Cl)c(OC)cc(OC)c1C2=O"
  Unit of measurement: "%"
  Lym: 79.2
- Compound: "COc1ccc2[nH]c([S+]([O-])Cc3ncc(C)c(OC)c3C)nc2c1 (centres undefined)"
  Unit of measurement: "%"
  Lym: 81.4
- Compound: "NC(N)=Nc1nc(CSCCC(N)=NS(N)(=O)=O)cs1"
  Unit of measurement: "%"
  Lym: 77.2
- Compound: "CCOC(=O)CCC(=O)O[C@H]1[C@H](O[C@@H]2[C@@H](C)[C@H](O[C@H]3C[C@@](C)(OC)[C@@H](O)[C@H](C)O3)[C@@H](C)C(=O)O[C@H](CC)[C@@](C)(O)[C@H](O)[C@@H](C)C(=O)[C@H](C)C[C@@]2(C)O)O[C@H](C)C[C@@H]1N(C)C [ERYTHROMYCIN ETHYLSUCCINATE]"
  Unit of measurement: "%"
  Lym: 85.4

----------
organism: Rattus norvegicus; assay: Open TG-GATES - Regimen: Single; format: toxicity, organism-based, Sprague-Dawley; set-up: regimen Single, gender Male, age 6 weeks; details: in vivo, po, 0 mg/kg, 24 h, tissue Blood, route gavage, dose level Control
WBC under 90 x10_2/uL gets true, anything at or over 90 x10_2/uL gets false.

- Compound: "NC(N)=Nc1nc(CSCCC(N)=NS(N)(=O)=O)cs1 [FAMOTIDINE]"
  Group label: "true"
- Compound: "CN(C)CCCN1c2ccccc2CCc2ccc(Cl)cc21 [CLOMIPRAMINE]"
  Group label: "true"
- Compound: "C[C@@H]1C[C@H]2[C@@H]3CCC4=CC(=O)C=C[C@]4(C)[C@@]3(F)[C@@H](O)C[C@]2(C)[C@@]1(O)C(=O)CO [DEXAMETHASONE]"
  Group label: "false"
- Compound: "COC1=CC(=O)C[C@@H](C)[C@]12Oc1c(Cl)c(OC)cc(OC)c1C2=O [GRISEOFULVIN]"
  Group label: "true"
- Compound: "COc1cc2c(c(OC)c1OC)-c1ccc(OC)c(=O)cc1[C@@H](NC(C)=O)CC2 [COLCHICINE]"
  Group label: "false"
- Compound: "Cc1ccc(C)c(OCCCC(C)(C)C(=O)O)c1 [GEMFIBROZIL]"
  Group label: "true"
- Compound: "CN1C(=O)CN=C(c2ccccc2)c2cc(Cl)ccc21 [DIAZEPAM]"
  Group label: "false"
- Compound: "CCOC(=O)CCC(=O)O[C@H]1[C@H](O[C@@H]2[C@@H](C)[C@H](O[C@H]3C[C@@](C)(OC)[C@@H](O)[C@H](C)O3)[C@@H](C)C(=O)O[C@H](CC)[C@@](C)(O)[C@H](O)[C@@H](C)C(=O)[C@H](C)C[C@@]2(C)O)O[C@H](C)C[C@@H]1N(C)C [ERYTHROMYCIN ETHYLSUCCINATE]"
  Group label: "false"
- Compound: "CN(C)CCCN1c2ccccc2CCc2ccccc21 [IMIPRAMINE]"
  Group label: "false"
